Target: T1, recombinant mouse sclerostin (mouse, UniProt Q99P68 24-211)
T1 construct: also called ms sclerostin; murine sclerostin
T1 sequence (looked up): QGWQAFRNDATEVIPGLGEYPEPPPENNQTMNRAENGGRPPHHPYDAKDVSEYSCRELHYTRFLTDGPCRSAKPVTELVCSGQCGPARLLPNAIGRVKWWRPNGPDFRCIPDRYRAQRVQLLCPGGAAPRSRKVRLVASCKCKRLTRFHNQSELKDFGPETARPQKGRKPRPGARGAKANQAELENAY
Assay: SPR
Property measured: Kd (nM)
Value expressed in nM; do not type the unit.

Known results for binders:
Binder	Kd (nM)
AE10-6-AM5 (antibody, V domains shown, converted into IgG) VH: EVQLVQSGAEVKKPGASVKVSCKVSGYTLSELSMHWVRQAPGKGLEWMGGFDPEGGETIYAQKFQGRVTMTEDTSTDTAYMELSSLRSEDTAVYYCATDAGGYWYKFFQHWGQGTLVTVSS VL: QAVVTQEPSLTVSPGGTVTLTCGSSTGTVTIDHYPYWFQQKPGQAPRTLISDTDDKHSWTPARFSGSLLGGKAALTLSGAQPEDEAEYYCLLFYGGTVVFGGGTKLTVL	0.016
AE10-6-AM2 (antibody, V domains shown, converted into IgG; also called rHC + LC S4 clone 102) VH: EVQLVQSGAEVKKPGASVKVSCKVSGYTLTELSMHWVRQAPGKGLEWMGGFDPEAGETIYAQKFQGRVTMTEDTSTDTAYMELSSLRSEDTAVYYCATDGELYWYKFFQHWGQGTLVTVSS VL: QAVVTQEPSLTVSPGGTVTLTCGSSTGAVTIWHYPYWFQQKPGQAPRTLISDTNDKHSWTPARFSGSLLGGKAALTLSGAQPEDEAEYYCLLDYGGSFVFGGGTKLTVL	0.094

Query (binder): AE10-6-AM6 (antibody, V domains shown, converted into IgG; also called rHC + LC S4 clone 119) VH: EVQLVQSGAEVKKPGASVKVSCKVSGYTLSELSMHWVRQAPGKGLEWMGGFDPEGGETIYAQKFQGRVTMTEDTSTDTAYMELSSLRSEDTAVYYCATDTEGYWEKFFQHWGQGTLVTVSS VL: QAVVTQEPSLTVSPGGTVTLTCGSSTGAVTIDHYPYWFQQKPGQAPRTLISDTDDKHSWTPARFSGSLLGGKAALTLSGAQPEDEAEYYCLLDYGGTFVFGGGTKLTVL ; field requested: Kd 0.027
